Reference source for all entries: the supplement of paper PMC11061612

// values below are reported Bliss excess
system: COLO-684 (Endometrial Carcinoma); experiment: Bliss excess, mean over the matrix (fraction); higher = more synergy;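 further: after 72 h of two-drug dosing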
Reply with just the number.

Consider the reported Bliss excess for these compounds:
1) Cc1cc2ncnn2cc1Nc1ncc2c(n1)n(C1CCOCC1)c(=O)n2C [AZD7648] + CN(C)CCCOc1ccc(-c2ccc3ncc4c(c3c2)n(C2CCOCC2)c(=O)n4C)cn1 [AZD0156] (first compound max 10 µM, 7x7, partner max 1 µM) = -0.0324
2) CC1(C)CCC(CN2CCN(c3ccc(C(=O)NS(=O)(=O)c4ccc(NCC5CCOCC5)c([N+](=O)[O-])c4)c(Oc4cnc5[nH]ccc5c4)c3)CC2)=C(c2ccc(Cl)cc2)C1 [Venetoclax] + C[C@@H]1COCCN1C2=NC(=NC(=C2)C3(CC3)[S@](=N)(=O)C)C4=C5C=CNC5=NC=C4 [AZD6738] (first compound max 1 µM, 7x7, partner max 10 µM) = 0.005

Could you now consider this next compound?
Query block: Can you look up Bliss excess on COLO-684 (Endometrial Carcinoma) for Cc1c2c(nn1C)CSCc1cc(n(C)n1)CSc1cc(c3ccccc3c1)OCCCc1c(C(=O)O)n(C)c3c-2c(Cl)ccc13 [AZD5991] + C=CCn1c(=O)c2cnc(Nc3ccc(N4CCN(C)CC4)cc3)nc2n1-c1cccc(C(C)(C)O)n1 [AZD1775] (first compound max 1 µM, partner max 1 µM) ?
Result block: -0.0587
